Cited source for all entries: patent US20120316071A1

Below: a set of entries, each annotated with reported ECL signal.
- Measured target: T1, rHuman HGF R/c-MET/Fc Chimera, CF (R&D Systems Cat#358-MT/CF) (human, UniProt P08581 25-932)
- T1 construct: Bought recombinant Fc chimera; also called HGF R/Fc; hepatocyte growth factor receptor; Fc part of the bought chimera not given
- T1 sequence (P08581 25-932, change not shown): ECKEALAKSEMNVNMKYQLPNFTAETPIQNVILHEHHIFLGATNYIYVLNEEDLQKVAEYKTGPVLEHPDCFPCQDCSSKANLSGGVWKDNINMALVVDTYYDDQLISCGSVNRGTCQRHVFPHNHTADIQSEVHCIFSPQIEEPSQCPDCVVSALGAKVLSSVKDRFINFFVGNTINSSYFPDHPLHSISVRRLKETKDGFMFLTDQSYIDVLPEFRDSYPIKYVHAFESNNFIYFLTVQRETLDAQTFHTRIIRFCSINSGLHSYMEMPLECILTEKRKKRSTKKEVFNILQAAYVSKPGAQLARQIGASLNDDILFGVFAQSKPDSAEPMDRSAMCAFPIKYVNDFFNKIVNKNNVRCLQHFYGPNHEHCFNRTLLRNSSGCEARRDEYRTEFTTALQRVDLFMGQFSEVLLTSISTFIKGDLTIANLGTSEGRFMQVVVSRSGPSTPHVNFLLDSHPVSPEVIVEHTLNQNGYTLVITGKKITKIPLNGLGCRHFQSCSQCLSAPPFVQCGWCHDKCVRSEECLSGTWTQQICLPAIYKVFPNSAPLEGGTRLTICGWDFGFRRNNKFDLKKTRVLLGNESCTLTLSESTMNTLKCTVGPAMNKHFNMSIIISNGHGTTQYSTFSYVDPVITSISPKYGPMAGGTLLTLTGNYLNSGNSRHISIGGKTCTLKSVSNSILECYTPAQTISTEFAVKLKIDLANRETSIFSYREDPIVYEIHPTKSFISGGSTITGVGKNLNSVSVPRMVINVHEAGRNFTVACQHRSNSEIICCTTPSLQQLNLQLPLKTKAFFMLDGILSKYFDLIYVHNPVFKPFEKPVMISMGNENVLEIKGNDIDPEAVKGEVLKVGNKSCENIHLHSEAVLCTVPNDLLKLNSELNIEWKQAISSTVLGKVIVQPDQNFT
- Protocol: ECL multispot (MSD), antigen spotted, Fab in solution;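 further: purified Fab incubated 1 h at 20 °C on antigen-spotted wells, bound Fab detected via TAG detection antibody, ECL compared with each well's blank, ratio of 4 or above scored as hit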

Previously resolved entries follow.
Fab VH1-46_IGHD6-6*01_IGHJ1*01 S102A/S103P/S104F/H111F (APFF) & L6_IGKJ1*01 S28H (Fab, V domains shown, Fab; VH cloned into Plasmid A (CH1, His6 and Flag tags) and VL into Plasmid C (kappa CL); also called APFF / S28H) VH: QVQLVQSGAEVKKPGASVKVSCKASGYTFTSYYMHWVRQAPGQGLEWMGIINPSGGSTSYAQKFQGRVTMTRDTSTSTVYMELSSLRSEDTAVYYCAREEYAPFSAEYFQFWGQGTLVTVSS VL: EIVLTQSPATLSLSPGERATLSCRASQHVSSYLAWYQQKPGQAPRLLIYDASNRATGIPARFSGSGSGTDFTLTISSLEPEDFAVYYCQQRSNWPPWTFGQGTKVEIKR | 346
Fab VH1-46_IGHD6-6*01_IGHJ1*01 S102A/S103P/S104F/H111F (APFF) & L6_IGKJ1*01 S28R (Fab, V domains shown, Fab; VH cloned into Plasmid A (CH1, His6 and Flag tags) and VL into Plasmid C (kappa CL); also called APFF / S28R) VH: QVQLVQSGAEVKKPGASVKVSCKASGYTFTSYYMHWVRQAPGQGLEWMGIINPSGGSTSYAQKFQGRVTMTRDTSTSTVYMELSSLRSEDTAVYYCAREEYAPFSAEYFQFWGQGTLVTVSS VL: EIVLTQSPATLSLSPGERATLSCRASQRVSSYLAWYQQKPGQAPRLLIYDASNRATGIPARFSGSGSGTDFTLTISSLEPEDFAVYYCQQRSNWPPWTFGQGTKVEIKR | 378

Q) Which ECL signal reading was recorded for the binder Fab VH1-46_IGHD6-6*01_IGHJ1*01 S102A/S103P/S104F/H111F (APFF) & L6_IGKJ1*01 S28I (Fab, V domains shown, Fab; VH cloned into Plasmid A (CH1, His6 and Flag tags) and VL into Plasmid C (kappa CL); also called APFF / S28I) VH: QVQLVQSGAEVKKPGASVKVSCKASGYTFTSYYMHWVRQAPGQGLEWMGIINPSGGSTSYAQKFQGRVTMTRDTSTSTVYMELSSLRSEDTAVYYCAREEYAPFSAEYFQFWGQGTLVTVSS VL: EIVLTQSPATLSLSPGERATLSCRASQIVSSYLAWYQQKPGQAPRLLIYDASNRATGIPARFSGSGSGTDFTLTISSLEPEDFAVYYCQQRSNWPPWTFGQGTKVEIKR ?
A) 369
